Tested on: DU145 cells
Experiment: Antiproliferation dose-response assay for 72 h
Format: cell-based
Settings: Homo sapiens, DU-145; DU145, 72 h, mean ± SEM of two experiments; read-out: antiproliferative IC50
metric-name: pIC50
Give only the number. pIC50 is defined as minus log10 of concentration in molar units.

Given the compound COc1cc(O)c(C(=O)/C=C/c2cc(OC)c(OC)c(OC)c2)c(OC)c1 , what is its reported pIC50?
5.05

###

Molecular target: hMAO-A (Homo sapiens, UniProt P21397)
Construct: purchased Sigma-Aldrich Co. (St. Louis, MO, USA)
Experiment: MAO-Glow inhibitory potency (IC50) and relative selectivity
Type: biochemical
Conditions: comparison of hMAO-A and hMAO-B IC50s
Method: The inhibitory effects of the synthesized KKRs of hMAO-A and B were tested by measuring the decrease in arbitrary light units (ALU) signal produced by the optimized isozymes using the MAO-Glow™ Assay at 37 °C. […] After 30 min, the luminescence signals for all plates were read on a Synergy HTX Multi-reader from Bio-Tek (Winooski, VT, USA). […]
metric-name: MAO isozyme selectivity

O=c1cc(-c2ccccc2)oc2cc(Cl)c(Cl)cc12 highly selective MAO-AIs
O=c1c(O)c(-c2ccccc2)oc2c(Cl)cc(Cl)cc12 highly selective MAO-AIs

###

Biological target: hMAO-A (Homo sapiens)
Sequence (P21397 1-527): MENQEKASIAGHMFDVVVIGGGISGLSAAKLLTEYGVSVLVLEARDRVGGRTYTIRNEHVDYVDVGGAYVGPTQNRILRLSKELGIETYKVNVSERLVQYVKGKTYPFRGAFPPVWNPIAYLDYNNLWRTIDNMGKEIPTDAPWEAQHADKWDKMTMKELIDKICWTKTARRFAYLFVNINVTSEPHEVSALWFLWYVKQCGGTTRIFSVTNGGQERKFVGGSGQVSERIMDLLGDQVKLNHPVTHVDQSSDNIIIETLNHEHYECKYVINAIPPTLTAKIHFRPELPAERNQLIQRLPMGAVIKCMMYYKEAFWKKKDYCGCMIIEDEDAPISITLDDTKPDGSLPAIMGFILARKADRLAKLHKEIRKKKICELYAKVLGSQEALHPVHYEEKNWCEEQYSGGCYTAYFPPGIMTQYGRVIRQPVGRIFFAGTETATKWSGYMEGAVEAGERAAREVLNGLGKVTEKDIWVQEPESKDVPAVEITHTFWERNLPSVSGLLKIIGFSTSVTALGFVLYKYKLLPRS
metric-name: pIC50
Conceptually, pIC50 converts a concentration in mol/L into minus its log10.

Solved cases below.
compound	pIC50
COc1cc(O)c(C(=O)/C=C/c2ccc(Cl)c(Cl)c2)c(OC)c1	6.51
Cc1ccc2c(c1)c1c3n2CCNC3CCC1 (stereo not drawn) [PIRL, pirlindole, reference compound]	7.92

// lookup pIC50 for O=c1c(O)c(-c2ccccc2)oc2c(Cl)cc(Cl)cc12
4.80

###

Record: IC50 reported on hMAO-B (Homo sapiens, UniProt P27338).
Sequence (P27338 whole entry): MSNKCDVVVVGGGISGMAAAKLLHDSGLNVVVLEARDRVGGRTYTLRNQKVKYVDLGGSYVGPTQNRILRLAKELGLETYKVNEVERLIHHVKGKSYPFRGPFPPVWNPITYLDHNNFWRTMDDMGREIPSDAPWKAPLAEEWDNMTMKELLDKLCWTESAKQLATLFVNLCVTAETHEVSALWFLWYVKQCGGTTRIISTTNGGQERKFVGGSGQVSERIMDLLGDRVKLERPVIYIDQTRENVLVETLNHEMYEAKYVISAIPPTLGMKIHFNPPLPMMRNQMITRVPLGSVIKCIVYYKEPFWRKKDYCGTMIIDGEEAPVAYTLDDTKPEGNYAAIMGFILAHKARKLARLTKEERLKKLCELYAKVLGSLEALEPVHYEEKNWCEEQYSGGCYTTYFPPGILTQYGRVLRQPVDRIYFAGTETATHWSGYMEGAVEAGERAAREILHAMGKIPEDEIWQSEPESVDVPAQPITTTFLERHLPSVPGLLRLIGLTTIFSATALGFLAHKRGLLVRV
Write the answer as a number in nM, unit excluded.

structure-smiles-string	IC50, nM
COc1cc(O)c(C(=O)/C=C/c2ccc(Cl)c(Cl)c2)c(OC)c1	1120

Now examine the next entry.
For COc1cc(OC)c2c(=O)c(O)c(/C=C/c3cc(OC)c(OC)c(OC)c3)oc2c1 , what is its reported IC50?
200

###

Biological target: hMAO-A (Homo sapiens)
Construct: purchased Sigma-Aldrich Co. (St. Louis, MO, USA)
Assay: Michaelis–Menten kinetics / mode of inhibition (MAO-Glow, LDS substrate)
Assay type: biochemical
Conditions: Cheng–Prosuff's equation
Form field: Ki (one value per entry).

O=c1cc(-c2ccccc2)oc2cc(Cl)c(Cl)cc12 ≤ 7.4 nM

# get_value(readout= Ki, system= hMAO-A (Homo sapiens)) for COc1cc(O)c(C(=O)/C=C/c2ccc(Cl)c(Cl)c2)c(OC)c1
≤ 7.4 nM

###

System: DU145 cells
Assay: Scratch migration assay
Format: cell-based, human
Settings: preliminary data

compound	effect on cell migration
CC(=O)O[C@H]1C(=O)[C@@]2(C)[C@H]([C@H](OC(=O)c3ccccc3)[C@]3(O)C[C@H](OC(=O)[C@H](O)[C@@H](NC(=O)c4ccccc4)c4ccccc4)C(C)=C1C3(C)C)[C@]1(OC(C)=O)CO[C@@H]1C[C@@H]2O [TAX, paclitaxel, reference compound]	delayed cell migration
COc1cc(O)c(C(=O)/C=C/c2ccc(Cl)c(Cl)c2)c(OC)c1 [KKR11]	delayed cell migration

###

Target: hMAO-A (Homo sapiens, UniProt P21397)
Construct: purchased Sigma-Aldrich Co. (St. Louis, MO, USA)
Sequence (P21397 1-527): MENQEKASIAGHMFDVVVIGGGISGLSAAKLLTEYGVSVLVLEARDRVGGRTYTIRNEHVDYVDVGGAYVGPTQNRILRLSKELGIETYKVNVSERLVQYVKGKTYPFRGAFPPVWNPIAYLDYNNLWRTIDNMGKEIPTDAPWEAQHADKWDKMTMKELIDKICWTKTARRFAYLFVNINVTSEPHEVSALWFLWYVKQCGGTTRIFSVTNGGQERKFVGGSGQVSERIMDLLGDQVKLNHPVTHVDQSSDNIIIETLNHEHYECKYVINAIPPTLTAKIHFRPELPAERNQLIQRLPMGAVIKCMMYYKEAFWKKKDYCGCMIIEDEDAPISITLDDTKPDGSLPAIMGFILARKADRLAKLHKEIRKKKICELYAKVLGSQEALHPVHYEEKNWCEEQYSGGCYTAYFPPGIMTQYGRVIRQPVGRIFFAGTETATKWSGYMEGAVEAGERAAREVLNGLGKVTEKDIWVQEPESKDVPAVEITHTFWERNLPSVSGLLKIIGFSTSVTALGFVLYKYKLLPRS
Experiment: Michaelis–Menten kinetics / mode of inhibition (MAO-Glow, LDS substrate)
Type: biochemical
Settings: competitive model, Ki = IC50/(1 + [S]/Km)
Each entry below carries its recorded pKi.
pKi is defined as minus the log10 of a concentration measured in mol/L.

O=c1cc(-c2ccccc2)oc2cc(Cl)c(Cl)cc12 8.77

Okay, now this compound:
Reported pKi, compound COc1cc(O)c(C(=O)/C=C/c2ccc(Cl)c(Cl)c2)c(OC)c1 : ____
8.13

The measurements presented in this section are drawn from paper PMC7249060.
